target: Sodium- and chloride-dependent GABA transporter 1 (Mus musculus, UniProt P31648); test: Inhibition of [3H]GABA uptake at mouse GAT1 expressed in D8 cells
Collected pIC50 values appear next to each entry.
Bear in mind: pIC50 is minus log10 of a mol/L concentration; give just that figure.

{"molecule": "Cc1ccc(C(c2ccc(C)cc2)[S+]([O-])CCN2CCC[C@@H](C(=O)O)C2)cc1 (stereo partly drawn)", "pIC50": 5.93}
{"molecule": "COc1ccc(C(SCCCN2CCC[C@@H](C(=O)O)C2)c2ccc(OC)cc2)cc1", "pIC50": 3.92}

In the following, a different molecule is considered.
Req: Note down pIC50 recorded for `Cc1ccc(C(SCCCN2CCC[C@@H](C(=O)O)C2)c2ccc(C)cc2)cc1`
Resp: 4.80

Where do the numbers come from? From ChEMBL document CHEMBL1140002.
